Test system: P. falciparum PI4K cKD line
Assay: microbe, parasite or virus in culture
Details: Plasmodium falciparum, read-out: IC50 for PfPI4K, no aTc, N=1, no aTc (knockdown)
Recorded IC50 by entry
# answer = value followed by unit

IC50 recorded for this compound, CS(=O)(=O)c1cccc(-c2ccnc3ccc(N4CCC(O)CC4)nc23)c1 , is 21.7 nM

Now let's try a different one.
The compound Cn1ccc(-c2ccc3nccc(-c4cccc(S(C)(=O)=O)c4)c3n2)cc1=O showed IC50 equal to 5.2 nM

---

Assay: in vivo
Settings: male, Balb/C, mouse, po, 10 mg/kg
In this section, each of the molecules is paired with its reported bioavailability.

Below are worked cases with known answers.
Measured bioavailability of CS(=O)(=O)c1cccc(-c2ccc3nccc(-c4ccc(C(=O)N5CCC(O)C5)cc4)c3n2)c1 (stereo not shown) [Compound 37] : 11%

So, Cn1ccc(-c2ccc3nccc(-c4cccc(S(C)(=O)=O)c4)c3n2)cc1=O [Compound 19] ? Its bioavailability was 27%

Data point: CS(=O)(=O)c1cccc(-c2ccnc3ccc(N4CCC(O)CC4)nc23)c1 [Compound 21] ; bioavailability = 37%

More entries:
Memo: Cn1ccc(-c2ccc3nccc(-c4ccc(C(C)(C)O)nc4)c3n2)cc1=O [Compound 24] , reported bioavailability: 10%

---

Conditions: total body clearance from whole blood; iv 3 mg/kg
in vivo mouse CLb values by entry
Give the number; mL/min/kg is assumed, so skip it.

Below, each entry is followed by its recorded in vivo mouse CLb result.
# compound Cn1ccc(-c2ccc3nccc(-c4ccc(C(C)(C)O)nc4)c3n2)cc1=O [Compound 24] ; its in vivo mouse CLb = 110

Recorded in vivo mouse CLb (compound Cn1ccc(-c2ccc3nccc(-c4cccc(S(C)(=O)=O)c4)c3n2)cc1=O [Compound 19] ): 102

// in vivo mouse CLb value for CS(=O)(=O)c1cccc(-c2ccc3nccc(-c4ccc(C(=O)N5CCC(O)C5)cc4)c3n2)c1 (stereo not shown) [Compound 37] : 181

Here is another compound to look at.
The reported value for CS(=O)(=O)c1cccc(-c2ccnc3ccc(N4CCC(O)CC4)nc23)c1 [Compound 21] in terms of in vivo mouse CLb is 80

---

System: P. falciparum PI4K cKD line
Assay: microbe, parasite or virus in culture
Details: Plasmodium falciparum, read-out: IC50 for PfPI4K, +aTc, N=1, +aTc
IC50 reference

The value of IC50 measured for the compound Cn1ccc(-c2ccc3nccc(-c4cccc(S(C)(=O)=O)c4)c3n2)cc1=O turned out to be 48.9 nM

Now take the following compound into account.
response.value for CS(=O)(=O)c1cccc(-c2ccnc3ccc(N4CCC(O)CC4)nc23)c1 (field: IC50) = 131 nM

---

Tested on: P. falciparum NF54 (PfNF54) parasites
Assay: In vitro antiplasmodial asexual blood stage activity, pLDH assay, NF54
Assay type: cell-based, Plasmodium falciparum
Details: pLDH assay, 72 h; read-out: Pf ABS IC50 NF54
parameter: pIC50
In textbook form, pIC50 equals minus log to base ten of the concentration in mol/L.

pIC50 recorded for this molecule, CS(=O)(=O)c1cccc(-c2ccc3nccc(-c4cccc(S(C)(=O)=O)c4)c3n2)c1 [Compound 18] , is 7.77
